# system.name: T1, EsCas13d, nuclease-dead (Eubacterium siraeum, UniProt B0MS50, R295A;H300A;R849A;H854A)
# T1 sequence: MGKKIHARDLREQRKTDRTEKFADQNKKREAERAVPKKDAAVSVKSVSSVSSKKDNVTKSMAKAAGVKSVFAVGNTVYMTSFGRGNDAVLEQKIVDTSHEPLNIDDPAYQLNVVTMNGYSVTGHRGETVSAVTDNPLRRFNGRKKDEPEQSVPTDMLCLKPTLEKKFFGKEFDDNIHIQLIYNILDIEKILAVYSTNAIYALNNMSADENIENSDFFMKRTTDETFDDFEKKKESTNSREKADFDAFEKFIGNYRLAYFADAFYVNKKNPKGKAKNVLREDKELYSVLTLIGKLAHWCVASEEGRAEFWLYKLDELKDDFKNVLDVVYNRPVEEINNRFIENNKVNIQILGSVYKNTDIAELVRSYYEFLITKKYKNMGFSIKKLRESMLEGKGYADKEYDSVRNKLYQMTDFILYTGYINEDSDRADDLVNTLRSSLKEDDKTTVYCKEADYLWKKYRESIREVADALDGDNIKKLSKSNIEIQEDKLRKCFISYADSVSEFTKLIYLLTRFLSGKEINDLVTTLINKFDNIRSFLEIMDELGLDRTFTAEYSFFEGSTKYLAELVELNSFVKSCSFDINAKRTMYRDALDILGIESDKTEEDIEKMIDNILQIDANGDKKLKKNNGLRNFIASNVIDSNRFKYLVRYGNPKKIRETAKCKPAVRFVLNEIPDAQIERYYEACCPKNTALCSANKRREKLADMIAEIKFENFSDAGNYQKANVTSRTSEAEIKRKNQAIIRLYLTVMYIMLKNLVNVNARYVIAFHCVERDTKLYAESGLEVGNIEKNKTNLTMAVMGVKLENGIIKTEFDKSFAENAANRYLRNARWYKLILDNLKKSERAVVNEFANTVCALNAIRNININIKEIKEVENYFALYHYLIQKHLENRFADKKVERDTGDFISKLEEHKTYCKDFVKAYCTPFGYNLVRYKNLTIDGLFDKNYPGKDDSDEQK
# protocol.details: crRNA (strand 1, pre-loaded); Mg2+; 40 mM Tris-HCl pH 7.5, 150 mM NaCl, 6 mM MgCl2, 1 mM DTT, 0.1% Tween-20, 0.2 mg/ml BSA; 25 C; 10 min per concentration, then washed
# recorded.conditions: tags: His6-TwinStrep-SUMO cleaved; N-terminal SNAP kept (SNAP-Surface 488); label: 3' end held by stalled T7 RNA polymerase
pKd: −log10 of the molar value.
Attribute: pKd
value.kind: pKd

1) target 1 insA 3' of 11,insG 3' of 2 (mixed) RNA 1: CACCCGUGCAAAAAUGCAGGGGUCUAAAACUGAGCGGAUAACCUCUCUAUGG RNA 2: GGGAAUGGAUCCACAUCUACGAAUUCGUACCAUAGAGAGGUAUAUCCGCUCGACCGAGAUCGGAAGAGCACACGU    7.76
2) target 1 MT 5'PFS CCU 3'PFS UAG (mixed) RNA 1: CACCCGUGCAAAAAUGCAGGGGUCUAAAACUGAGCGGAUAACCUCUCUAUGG RNA 2: GGGAAUGGAUCCACAUCUACGAAUUCCCUCCAUAGAGAGGUUAUCCGCUCAUAGAGAUCGGAAGAGCACACGU    7.55
3) target 2 MT 5'PFS GAA 3'PFS CAU (mixed) RNA 1: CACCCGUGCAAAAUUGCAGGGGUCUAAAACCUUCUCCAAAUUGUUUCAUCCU RNA 2: GGGAAUGGAUCCACAUCUACGAAUUCGAAAGGAUGAAACAAUUUGGAGAAGCAUAGAUCGGAAGAGCACACGU    8.07
4) target 1 insA 3' of 22,insG 3' of 9 (mixed) RNA 1: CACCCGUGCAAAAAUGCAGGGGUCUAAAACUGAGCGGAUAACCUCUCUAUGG RNA 2: GGGAAUGGAUCCACAUCUACGAAUUCGUACACAUAGAGAGGUUAGUCCGCUCACCGAGAUCGGAAGAGCACACGU    7.71

Where do the numbers come from? From paper PMC10786891.
